# system under test: Xanthine dehydrogenase/oxidase (Homo sapiens)
# Sequence (P47989 whole entry): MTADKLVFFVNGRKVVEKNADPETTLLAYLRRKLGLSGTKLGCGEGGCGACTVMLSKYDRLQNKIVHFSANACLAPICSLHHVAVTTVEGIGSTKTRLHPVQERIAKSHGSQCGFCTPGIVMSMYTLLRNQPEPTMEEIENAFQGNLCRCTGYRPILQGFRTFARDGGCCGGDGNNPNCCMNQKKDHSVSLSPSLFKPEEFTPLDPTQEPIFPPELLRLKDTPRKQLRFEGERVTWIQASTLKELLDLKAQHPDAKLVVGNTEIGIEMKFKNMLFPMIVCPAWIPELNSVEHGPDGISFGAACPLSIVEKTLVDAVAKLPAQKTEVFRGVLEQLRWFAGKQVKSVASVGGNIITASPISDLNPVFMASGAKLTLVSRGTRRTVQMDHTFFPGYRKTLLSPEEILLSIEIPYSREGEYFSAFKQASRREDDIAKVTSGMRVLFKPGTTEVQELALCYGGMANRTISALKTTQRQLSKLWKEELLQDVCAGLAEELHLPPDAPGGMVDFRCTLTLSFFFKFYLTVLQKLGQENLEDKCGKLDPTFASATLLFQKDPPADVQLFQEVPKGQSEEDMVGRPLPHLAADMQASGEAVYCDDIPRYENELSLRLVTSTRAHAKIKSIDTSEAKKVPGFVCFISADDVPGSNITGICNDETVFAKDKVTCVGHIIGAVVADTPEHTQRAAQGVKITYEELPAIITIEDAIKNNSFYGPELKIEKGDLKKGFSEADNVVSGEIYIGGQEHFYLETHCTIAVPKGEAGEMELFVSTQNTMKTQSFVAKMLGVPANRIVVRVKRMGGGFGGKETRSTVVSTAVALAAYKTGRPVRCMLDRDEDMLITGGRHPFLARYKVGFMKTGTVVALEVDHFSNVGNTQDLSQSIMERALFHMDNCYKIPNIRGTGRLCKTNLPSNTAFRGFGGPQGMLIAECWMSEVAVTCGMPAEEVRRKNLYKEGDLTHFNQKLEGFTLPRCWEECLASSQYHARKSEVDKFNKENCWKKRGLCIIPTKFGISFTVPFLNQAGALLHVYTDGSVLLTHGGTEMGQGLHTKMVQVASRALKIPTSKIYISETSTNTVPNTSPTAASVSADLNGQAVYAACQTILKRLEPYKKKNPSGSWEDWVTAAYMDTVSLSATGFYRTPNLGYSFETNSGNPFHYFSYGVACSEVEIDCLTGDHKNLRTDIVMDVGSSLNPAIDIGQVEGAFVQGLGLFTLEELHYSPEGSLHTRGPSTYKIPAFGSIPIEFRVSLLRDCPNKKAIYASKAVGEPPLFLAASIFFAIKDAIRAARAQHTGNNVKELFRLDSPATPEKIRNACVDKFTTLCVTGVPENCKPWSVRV
experimental readout: pIC50
Entry type: numeric. Quantity: pIC50, the -log10 of concentration in molar units.

May I ask what pIC50 has been recorded for "O=C1C[C@H](c2ccc(O)cc2)Oc2cc(O)cc(O[C@@H]3O[C@H](CO)[C@@H](O)[C@H](O)[C@H]3O[C@@H]3O[C@H](CO)[C@@H](O)[C@H](O)[C@H]3O)c21" ?
4.02

Provenance of the data: ChEMBL document CHEMBL4130465
